test system: HL-60; test: NCI tumour cell line growth inhibition, 48 h
Activity calls are given as the source filed them. Rule as the data show it: active = GI50 up to about 1.1 µM and inactive = higher.
Outcomes: T for active, F for inactive

• COc1ccc([C@H](NC(=O)c2ccccc2)[C@@H](O)C(=O)O[C@H]2C[C@@]3(O)C(OC(=O)c4ccccc4)C4[C@](C)(C(=O)[C@H](OC(C)=O)C(=C2C)C3(C)C)[C@@H](O)C[C@H]2OC[C@@]42OC(C)=O)cc1 (some centres not stated) = T
• CCCCC1Cc2cc(OC)ccc2-c2n1c1cc(OC)ccc1[n+]2C.CCCCC1Cc2cc(OC)ccc2-c2n1c1ccc(OC)cc1[n+]2C (configuration not stated) = T
• O=c1cc(CBr)c2ccc(O)cc2o1 = F
• [O-][Cl+3]([O-])([O-])[O-].[O-][Cl+3]([O-])([O-])[O-].c1ccn2c(N3CCOCC3)[n+]3c4ccccc4[n+]4c(N5CCOCC5)n5ccccc5c4c3c2c1 = F
• O[C@@H]1[C@H](OC2c3ccccc3-c3ccccc32)[C@H](OCc2ccccc2)[C@@H]2OC[C@H]1O2 = F
• O=C(Cc1nc2ccc(C(=O)c3ccccc3)cc2nc1O)C(=O)Nc1ccccc1[N+](=O)[O-] = F
• COc1ccc2c(-c3csc(-c4c[nH]c5ccccc45)n3)c[nH]c2c1 = F

---

Form field: GI50 (one value per entry).
tested on: TK-10; assay: NCI tumour cell line growth inhibition, 48 h
Active and inactive are the calls of the source. Cut-off read from the data, not from the text of the source: active = GI50 up to about 1.1 µM and inactive = higher.
Observed Property: GI50

- Nc1ccc(C(c2ccccc2)(c2ccccc2)c2ccccc2)cc1: 20.2 µM (inactive)
- Fc1ccc(C(OCCN2CCN(CCCCl)CC2)c2ccc(F)cc2)cc1: 36.7 µM (inactive)
- CCOC(=O)c1nn2c(nc1=O)sc1ccc3ccccc3c12: > 100 µM (inactive)
- COc1ccc(/C=c2/[nH]c(=O)/c(=C\c3ccc(OCc4ccccc4)cn3)[nH]c2=O)cc1: 71.9 µM (inactive)
- Cc1c(C)c2c(c(N)c1C#N)C(=O)N(CCc1ccccc1)C2=O: > 100 µM (inactive)

---

system: HCC 2998; assay: NCI tumour cell line growth inhibition, 48 h
The source made the active and inactive calls. Rule as the data show it: active = GI50 up to about 1.1 µM and inactive = higher.
Labels: active, inactive

- Cc1cc(C)c2c(=N)c3ccccc3n(CCCCCCn3c4ccccc4c(=N)c4c(C)cc(C)nc43)c2n1: active
- CCOc1ccc(N/C(=C(/C(Cl)=C(/Cl)N(CC)CC)[N+](=O)[O-])n2nnc3ccccc32)cc1: inactive
- O=C(CC1Sc2ccccc2NC1=O)Nc1cc(Cl)ccc1Cl (stereo not given): inactive
- O=S(=O)(N=[Se](=O)(c1ccccc1)c1ccccc1)c1ccccc1: inactive
- Cc1cn([C@H]2C[C@@H](N3C(=O)c4ccccc4C3=O)[C@@H](CO[Si](C)(C)C(C)(C)C)O2)c(=O)[nH]c1=O: inactive

---

tested on: IGROV-1; test: NCI tumour cell line growth inhibition, 48 h
Active and inactive are the calls of the source. No stated cut-off is given here; in the data, active = GI50 up to about 1.1 µM and inactive = higher.
Outcomes: yes (1) (active), no (0) (inactive)

* CCc1cccc(C)c1NC(=O)C1=C(C)NC(C)=C(C(=O)Nc2c(C)cccc2CC)C1c1ccc2c(c1)OCO2 | no (0)
* COc1ccc(C2=Nc3ccccc3SC(C)C2)cc1 (stereo not drawn) | no (0)
* O=[N+]([O-])c1ccc(Oc2c(Cl)cc(S(=O)(=O)N/C(=N\O)Nc3ccc(Cl)cc3)cc2Cl)cc1 | no (0)
* CN1CC(c2ccccc2)C(O)(C2(c3ccccc3)CN(C)CC(c3ccccc3)C2=O)C(c2ccccc2)C1 (stereo not drawn) | no (0)
* C/C(CC(O)(C(F)(F)F)C(F)(F)F)=N\NC(N)=S | no (0)
* CSC1=N/C(=C\c2ccc(Cl)cc2)C(=O)N1CN1CCCCC1 | no (0)
* COC(=O)/C=C(\CC(=O)OC)n1nnnc1[C@@H]1C[C@H](COC(c2ccccc2)(c2ccccc2)c2ccccc2)[C@H]2OC(C)(C)O[C@H]21 | no (0)
* CO[C@]12C[C@H](CNC(=O)c3cc(Br)c(Br)[nH]3)O[C@H]1NC(=O)N2 | no (0)
* C=C(CN(CC)CC)C1(c2ccccc2)CC2(CCCC2)C(=O)O1 (stereo not drawn) | no (0)
* CCCNC(=S)N/C=C1/C(=O)C=C(C)OC1=O | no (0)
* N#Cc1nc(CCN2C(=O)c3ccccc3C2=O)oc1N | no (0)
* O=C(c1cccs1)N1CCc2ccccc2C1 | no (0)
* COc1ccc(/C(=N/O)c2ccccc2-c2nc3ccccc3c(=O)n2-c2ccc(S(=O)(=O)Nc3ncccn3)cc2)cc1C | no (0)
* O=[N+]([O-])c1cccc2c1[nH]c1c(-c3ccccc3)nccc12 | no (0)
* COc1cc(C2c3cc4c(cc3[C@H](NC(=O)c3cccs3)C3COC(=O)[C@H]23)OCO4)cc(OC)c1OC (stereo partly drawn) | yes (1)
* CC(C)(C)NC1=NC(C(F)(F)F)(C(F)(F)F)NC(=O)N1 | no (0)
* CCN(CC)CCNC(=O)c1cc2cc(NC(=O)c3cc4cc(NC(=O)c5cc6cc([N+](=O)[O-])ccc6[nH]5)ccc4[nH]3)ccc2[nH]1 | no (0)
* CC(C)(C)OC(=O)N1CC(CCl)c2ccc(O)cc21 (stereo not drawn) | no (0)
* CCOC(=O)Cc1nc2c(O)ncnc2n1C1OC(COC(C)=O)C(OC(C)=O)C1OC(C)=O (stereo not drawn) | no (0)
* O=c1ssc2c1Nc1c(ssc1=O)S2 | no (0)
* [O-][Cl+3]([O-])([O-])[O-].[O-][Cl+3]([O-])([O-])[O-].c1ccn2c(N3CCOCC3)[n+]3c4ccccc4[n+]4c(N5CCOCC5)n5ccccc5c4c3c2c1 | no (0)
* CN(C)CCC(C#N)(c1ccccc1)c1ccccc1 | no (0)
* COC1(OC)CC(CO)(CNc2nc(N)nc(Cl)c2C=O)C1 | no (0)
* Cc1csc2c(P(=O)(OC(C)C)OC(C)C)c(-c3ccccc3)cn12 | no (0)
* COC(=O)C(Cc1cc(OC)c(OC)c(OC)c1)(NC(=O)c1ccccc1)P(=O)(OC)OC (stereo not drawn) | no (0)
* CCOc1ccccc1NC(=O)CC1C(=O)Nc2ccccc2[S+]1[O-] (stereo not drawn) | no (0)
* CC(O)(CCCCCl)c1nc2ccccc2s1 (stereo not drawn) | no (0)
* CC(=O)c1c(C)[n+]([O-])c2cc(C)c(C)cc2[n+]1[O-] | no (0)
* O=c1ccn(C/C=C/c2ccccc2)c(=S)n1C/C=C/c1ccccc1 | no (0)
* CC(=O)Oc1cc(OC(C)=O)c2c(c1C)CC[C@@H]1[C@@H]2CC[C@]2(C)[C@@H](OC(C)=O)CC[C@@H]12 | no (0)
* COc1ccc2oc(=N)c(C(=O)Nc3ccccc3)cc2c1 | no (0)
* Cc1cc(NS(=O)(=O)c2ccc(NC(NC(=O)C(C(F)(F)F)C(F)(F)F)(C(F)(F)F)C(F)(F)F)cc2)no1 | no (0)
* CC(=O)OC(C)(C)/C=C/C(=O)[C@](C)(O)[C@H]1[C@H](O)C[C@@]2(C)[C@@H]3CC=C4[C@@H](C[C@H](O)[C@H](O)C4(C)C)[C@]3(C)C(=O)C[C@]12C | yes (1)
* CN(CCO)/N=N/c1n[nH]cc1C(N)=O | no (0)
* COC(=O)C(c1n[nH]c2ccccc12)C(C(=O)OC)c1n[nH]c2ccccc12 (stereo not drawn) | no (0)
* CC1(C)CC(=O)C(C(c2cccc(O)c2O)C2C(=O)CC(C)(C)CC2=O)C(=O)C1 | no (0)
* CCc1cc2c(c3c1CCC3=O)CC1(Cc3ccc(C)cc3C1)C2 (stereo not drawn) | no (0)
* O=S(=O)(N=[Se](=O)(c1ccccc1)c1ccccc1)c1ccccc1 | no (0)

---

Reported values of GI50 for individual entries
test system: NCI-H23; test: NCI tumour cell line growth inhibition, 48 h
Activity calls are given as the source filed them. Cut-off read from the data, not from the text of the source: active = GI50 up to about 1.1 µM and inactive = higher.
Observed Property: GI50

* CN(C)CCCn1cnc2cc(Cl)c(Cl)cc21 | > 100 µM (inactive)
* O=C1CCc2ccc(O)c(c2)Oc2ccc(cc2)[C@@H]2O[C@@H]2CO1 | 38.4 µM (inactive)
* CC(=O)OCC1OC(n2c(N)c(C#N)c(-c3ccc(C)cc3)c(C#N)c2=S)C(OC(C)=O)C(OC(C)=O)C1OC(C)=O (centres undefined) | 21.1 µM (inactive)
* O=[N+]([O-])c1cccc2c1[nH]c1c(-c3ccccc3)nccc12 | 2.07 µM (inactive)

---

system: NCI-H226; experiment: NCI tumour cell line growth inhibition, 48 h
Active and inactive are the calls of the source. No stated cut-off is given here; in the data, active = GI50 up to about 1.1 µM and inactive = higher.
Classes used: T for active, F for inactive

- CC(=O)OCC1OC(SC2=N/C(=C\c3ccc(Br)s3)C(=O)N2CN2CCOCC2)C(OC(C)=O)C(OC(C)=O)C1OC(C)=O (stereo unspecified): F
- c1ccc(CCNCc2ccco2)nc1: F
- COC(=O)C(C(=O)C(=O)Nc1ccc(N)cc1[N+](=O)[O-])c1nc2ccc(Cl)cc2nc1O (stereo unspecified): F
- CC(C)OC(=O)Nc1cccc(Cl)c1 [CHLORPROPHAM]: F
- N#Cc1cccc(C2SCc3nc4ccccc4n32)c1 (stereo unspecified): F
- S=c1[nH]c(=S)c2nnn(-c3ccccc3)c2[nH]1: F
- Cc1cccc2c1CC1(Cc3ccccc3C1=O)C2=O (stereo unspecified): F
- NNC(=O)CNC(=O)CSc1nnc(COc2ccc(Cl)cc2)n1-c1ccccc1: F
- CCOC(=O)c1nn2c(nc1=O)sc1ccc3ccccc3c12: F
- COC(=O)/C=C(\CC(=O)OC)n1nnnc1[C@@H]1C[C@H](COC(c2ccccc2)(c2ccccc2)c2ccccc2)[C@H]2OC(C)(C)O[C@H]21: F
- S=C(N/N=C(/c1ccccc1)c1ccccn1)Nc1ccccc1Cl: T
- CCOC(=O)NC(OCCN(C)C)(C(F)(F)F)C(F)(F)F: F
- c1csc(-c2csc(-c3ccsc3)c2)c1: F
- CC(/C=C/C(=O)c1sc(-n2nc(-c3ccccc3)cc2-c2ccccc2)nc1C)=C\c1ccccc1: F
- CC1OC(OC2CC(O)(C(=O)CO)Cc3c(O)c4c(c(O)c32)C(=O)c2ccccc2C4=O)CC(N)C1O (stereo unspecified): T
- C/C1=C/C2=CC(C)C[C@@H]2C(=O)[C@]2(C)C(=O)CC(C)(C)[C@H]2CC1=O (stereo partly specified): F
- O=C(NC(=O)c1cc2cc(Br)cc(Br)c2oc1=O)Oc1ccccc1: F
- COc1ccc(/N=N/C(=N\c2ccccc2)c2ccc(N(CCC#N)CCC#N)cc2)cc1: F
- CC(C)OC(=S)Nc1ccc(Cl)c(/C=N/OC(C)(C)C)c1: F
- CN(C)c1ccc(/C=C2\N=C(c3ccc([N+](=O)[O-])cc3)OC2=O)cc1: F
- CCc1c2c(nc3ccc(O)cc13)-c1cc3c(c(=O)n1C2)COC(=O)[C@]3(O)CC [7-ETHYL-10-HYDROXYCAMPTOTHECIN]: T
- CCCC(O)c1cn(C(NC(=O)c2ccccc2)P(=O)(OCC)OCC)nn1 (stereo unspecified): F
- O=C1c2c(Br)sc(Br)c2[C@H]2OC(=S)N[C@@H]12: F
- COC(=O)C(=O)C(/C(=N/N)C(=O)Nc1ccccc1C(N)=O)c1nc2ccc([N+](=O)[O-])cc2nc1O (stereo unspecified): F
- COc1cc2c(cc1OC)C13CCN4CC5=CCOC6CC(=O)N2C1C6C5CC43O (stereo unspecified): F
- COc1cc2c3c(c1OC)-c1cc4c(cc1CC3(C#N)N(C(=O)c1ccccc1)CC2)OCO4 (stereo unspecified): F
- COc1ccc(CC(N)=O)cc1OC: F
- COc1ccc(C2C3CCc4ccccc4C3=NN2S(=O)(=O)c2ccc(/C=C/C(=O)O)cc2)cc1 (stereo unspecified): F
- COc1ccccc1C[C@@H]1OC2(C=CC(=O)CC2SC(=O)c2ccccc2)O[C@H]1Cc1ccccc1OC (stereo partly specified): F
- CSc1cc(Cl)c(C)cc1S(=O)(=O)NC(=O)NNc1cccc(C(F)(F)F)n1: F
- CC(C)C1OC23CCCCC2C(C#N)(C#N)C1(C#N)C(=N)O3 (stereo unspecified): F
- O=C(O)CNc1ccc(Cl)c(Cl)c1: F
- COc1ccc(CNc2cc(=O)n(C)c(=O)[nH]2)cc1: F
- CC1(C)N(OC2CCCCO2)C(c2ccccc2)C(c2ccccc2)=[N+]1[O-] (stereo unspecified): F
- CC(=O)OC12c3ccccc3C(c3ccccc31)C1C(=O)N(Nc3ccccc3)C(=O)C12 (stereo unspecified): F
- COc1cc(/C=C2/SC(c3ccccc3)N(c3cccc([N+](=O)[O-])c3)C2=O)cc(OC)c1OC (stereo unspecified): F
